STUDY TARGET: T1, tip-chimeric peptide IhfA5-mIhfB4NTHI (nontypeable Haemophilus influenzae …)
T1 construct: also called IHF(NTHI) tip chimeric peptide; IHFNTHI tip chimeric peptide
T1 peptide: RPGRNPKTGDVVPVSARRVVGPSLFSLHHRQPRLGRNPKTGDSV
METHOD DESCRIPTION: SPR Biacore 3000, HuMab immobilized, peptide as analyte
Could you please report measured Kd for the items listed next?
Write down the numeric answer in nM and omit the unit.

Task: Quickly give me recorded Kd for humanized anti-tip monoclonal antibody, heavy chain SEQ ID NO: 3 and light chain SEQ ID NO: 8 (antibody, V domains shown, also called H10212 (1F8.F1 Humanized HC3) + L10211 (1F8.F1 Humanized LC2)) VH: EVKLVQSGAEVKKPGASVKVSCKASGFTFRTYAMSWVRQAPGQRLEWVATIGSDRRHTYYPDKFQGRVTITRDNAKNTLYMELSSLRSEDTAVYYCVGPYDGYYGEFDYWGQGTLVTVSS VL: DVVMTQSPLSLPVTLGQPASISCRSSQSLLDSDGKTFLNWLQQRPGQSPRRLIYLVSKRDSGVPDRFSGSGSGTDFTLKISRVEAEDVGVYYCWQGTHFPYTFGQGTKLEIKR
Result: 20

Task: Quickly give me recorded Kd for humanized anti-tip monoclonal antibody, heavy chain SEQ ID NO: 3 and light chain SEQ ID NO: 7 (antibody, V domains shown, also called H10212 (1F8.F1 Humanized HC3) + L10210 (1F8.F1 Humanized LC1)) VH: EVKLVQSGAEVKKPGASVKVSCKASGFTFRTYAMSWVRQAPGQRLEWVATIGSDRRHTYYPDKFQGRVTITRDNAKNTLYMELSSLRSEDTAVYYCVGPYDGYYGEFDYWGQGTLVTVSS VL: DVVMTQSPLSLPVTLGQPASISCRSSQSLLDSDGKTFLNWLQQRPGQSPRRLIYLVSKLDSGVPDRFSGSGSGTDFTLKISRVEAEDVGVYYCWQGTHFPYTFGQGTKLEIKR
Result: 29

Task: Quickly give me recorded Kd for humanized anti-tip monoclonal antibody, heavy chain SEQ ID NO: 1 and light chain SEQ ID NO: 9 (antibody, V domains shown, also called H10210 (1F8.F1 Humanized HC1) + L10212 (1F8.F1 Humanized LC3)) VH: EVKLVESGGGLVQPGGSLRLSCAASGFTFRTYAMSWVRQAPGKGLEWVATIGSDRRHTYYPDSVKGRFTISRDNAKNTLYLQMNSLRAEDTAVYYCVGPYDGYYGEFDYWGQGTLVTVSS VL: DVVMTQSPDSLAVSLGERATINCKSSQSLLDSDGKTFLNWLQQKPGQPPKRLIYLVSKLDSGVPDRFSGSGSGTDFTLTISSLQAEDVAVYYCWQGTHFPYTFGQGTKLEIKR
Result: 152

Task: Quickly give me recorded Kd for humanized anti-tip monoclonal antibody, heavy chain SEQ ID NO: 3 and light chain SEQ ID NO: 9 (antibody, V domains shown, also called H10212 (1F8.F1 Humanized HC3) + L10212 (1F8.F1 Humanized LC3)) VH: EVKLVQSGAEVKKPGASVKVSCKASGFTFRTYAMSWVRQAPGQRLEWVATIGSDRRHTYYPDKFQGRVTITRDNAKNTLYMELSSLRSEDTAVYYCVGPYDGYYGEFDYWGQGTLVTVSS VL: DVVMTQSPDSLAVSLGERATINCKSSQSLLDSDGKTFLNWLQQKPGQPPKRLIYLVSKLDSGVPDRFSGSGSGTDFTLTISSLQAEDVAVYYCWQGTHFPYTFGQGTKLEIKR
Result: 200
